System: Pseudomonas aeruginosa
Method: Growth inhibition of Pseudomonas aeruginosa ATCC 10145 incubated for 24 hrs under aerobic condition by microdilution method
Type: organism-based
A collection of compounds and their measured MIC

>  <Substance Smiles>
O=C1N[C@H](Cc2ccc(O)cc2)C(=O)N[C@@H]1Cc1ccccc1

>  <MIC>
> 192 µg/mL

$$$$
>  <Substance Smiles>
O=C1N[C@@H](Cc2ccc(O)cc2)C(=O)N[C@H]1Cc1ccccc1

>  <MIC>
> 192 µg/mL

$$$$
>  <Substance Smiles>
O=C1N[C@@H](Cc2ccc(O)cc2)C(=O)N[C@H]1Cc1ccc(O)cc1

>  <MIC>
> 192 µg/mL

$$$$
>  <Substance Smiles>
O=C1N[C@H](Cc2ccc(OCc3ccccc3)cc2)C(=O)N[C@@H]1Cc1ccccc1

>  <MIC>
> 192 µg/mL

$$$$
>  <Substance Smiles>
O=C1N[C@H](Cc2ccc(OCc3ccccc3)cc2)C(=O)N[C@H]1Cc1ccc(OCc2ccccc2)cc1

>  <MIC>
> 192 µg/mL

$$$$
>  <Substance Smiles>
O=C1N[C@@H](Cc2ccc(OCc3ccccc3)cc2)C(=O)N[C@H]1Cc1ccccc1

>  <MIC>
> 192 µg/mL

$$$$
>  <Substance Smiles>
O=C1N[C@H](Cc2ccccc2)C(=O)N[C@H]1Cc1ccccc1

>  <MIC>
> 192 µg/mL

$$$$
>  <Substance Smiles>
O=C1N[C@H](Cc2ccccc2)C(=O)N[C@H]1Cc1ccc(OCc2ccccc2)cc1

>  <MIC>
> 192 µg/mL

$$$$
>  <Substance Smiles>
O=C1N[C@H](Cc2ccccc2)C(=O)N[C@@H]1Cc1ccccc1

>  <MIC>
> 192 µg/mL

$$$$
>  <Substance Smiles>
O=C1N[C@@H](Cc2ccccc2)C(=O)N[C@H]1Cc1ccccc1

>  <MIC>
> 192 µg/mL

$$$$

Cited source for all entries: ChEMBL document CHEMBL4340502
